Here, each record is paired with measured pKi data.
Biological target: UniProtKB Q969F8
Experiment: Human KISS1R binding assay (membrane competition binding)
Conditions: 90 min at room temperature; competition with 0.2 nM [125I]-metastin (45-54); Flp-In T-Rex 293 kisspeptin membranes; metal complexes nonradioactive Ga, In, Lu; read-out: hKiSSR Binding Ki (90 min)
pKi: −log10 of the molar value. Numbered stars: 1 amine (or outer) side, 2 acyl side, 3 side chain; on linkers, the order of the positions; unused ones are H or OH. Square brackets hold non-standard residues; d marks the D form. Peptide text beside a SMILES is read from it. * marks the point of attachment. DOTA = O=C(O)CN1CCN(CC(=O)O)CCN(CC(=O)*)CCN(CC(=O)O)CC1; Gly(N-(3-F-4-Me-benzyl)) = Cc1ccc(CNCC(=O)*)cc1F; X4 = O=C(c1ccc(-c2ccccc2OCCCN[*:1])cc1)[*:2]; Api(1-amidino) = N=C(N)N1CCC(N)(C(=O)O)CC1; Phe(3-F) = N[C@@H](Cc1cccc(F)c1)C(=O)O; d2Nal = N[C@H](Cc1ccc2ccccc2c1)C(=O)O; X1 = O=C(CN1CCC(N[*:1])CC1)[*:2]; 4Pal = N[C@@H](Cc1ccncc1)C(=O)O; Api = NC1(C(=O)O)CCNCC1; PEG2 = NCCOCCOCCC(=O)O; Ahx = NCCCCCC(=O)O; azaGly = NNC(=O)O

In the examples that follow, each entry is paired with its recorded pKi.
compound	pKi
CC(C)C[C@H](NC(=O)NNC(=O)[C@H](Cc1ccccc1)NC(=O)[C@@H](NC(=O)[C@H](CC(N)=O)NC(=O)[C@@H](Cc1ccc2ccccc2c1)NC(=O)[C@@H](Cc1ccc(O)cc1)NC(=O)CCOCCOCCN)[C@@H](C)O)C(=O)NC1(C(=O)N[C@@H](Cc2c[nH]c3ccccc23)C(N)=O)CCN(C(=N)N)CC1 [Compound 410] (H-[PEG2][dY][d2Nal]NTF[azaGly]L[Api(1-amidino)]W-NH2)	> 8.00
Cc1ccc(CNCC(=O)N2CCC(NC(=O)[C@H](CC(C)C)NC(=O)NNC(=O)c3ccc(-c4ccccc4OCCCNC(=O)CN4CCC(NC(=O)CN5CCN(CC(=O)O)CCN(CC(=O)O)CCN(CC(=O)O)CC5)CC4)cc3)(C(=O)N[C@@H](Cc3c[nH]c4ccccc34)C(N)=O)CC2)cc1F [Compound 217] ({DOTA}-[X1][X4][azaGly]L[Api](Gly(N-(3-F-4-Me-benzyl)))W-NH2)	> 8.00

Switching to the query record.
Query: Look up pKi of Cc1ccc(CNCC(=O)N2CCC(NC(=O)[C@H](CC(C)C)NC(=O)NNC(=O)[C@H](Cc3cccc(F)c3)NC(=O)[C@@H](NC(=O)[C@H](CC(N)=O)NC(=O)CCCCCNC(=O)CN3CCN(CC(=O)O)CCN(CC(=O)O)CCN(CC(=O)O)CC3)[C@@H](C)O)(C(=O)N[C@@H](Cc3ccncc3)C(N)=O)CC2)cc1F [Compound 169] ({DOTA-Ahx}-NT[Phe(3-F)][azaGly]L[Api](Gly(N-(3-F-4-Me-benzyl)))[4Pal]-NH2) and report it.
Result: > 8.00

---

Target: human kisspeptin receptor (Homo sapiens (Human), UniProt Q969F8)
Sequence (Q969F8 whole entry): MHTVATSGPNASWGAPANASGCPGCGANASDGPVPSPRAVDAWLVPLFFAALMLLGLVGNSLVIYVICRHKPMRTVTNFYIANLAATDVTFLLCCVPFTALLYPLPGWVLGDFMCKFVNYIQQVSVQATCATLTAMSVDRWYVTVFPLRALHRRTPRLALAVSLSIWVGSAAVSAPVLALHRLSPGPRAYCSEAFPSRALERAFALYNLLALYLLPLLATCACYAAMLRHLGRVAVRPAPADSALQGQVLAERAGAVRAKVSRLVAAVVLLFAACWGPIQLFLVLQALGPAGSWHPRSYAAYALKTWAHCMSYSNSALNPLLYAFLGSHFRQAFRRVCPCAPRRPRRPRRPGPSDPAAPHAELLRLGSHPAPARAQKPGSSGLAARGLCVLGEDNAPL
Test: Human KISS1R binding assay (membrane competition binding)
Conditions: 90 min at room temperature; competition with 0.2 nM [125I]-metastin (45-54); Flp-In T-Rex 293 kisspeptin membranes; metal complexes nonradioactive Ga, In, Lu; read-out: hKiSSR Binding Ki (90 min)
Experimental: Crude membrane fractions are prepared from Flp-In T-Rex 293 (Thermo Fisher) cell line expressing the human kisspeptin receptor. The cells are grown to 85-100% confluence on standard tissue culture dishes in Dulbecco's Modified Eagles Medium (DMEM) (Corning) supplemented with 10% FBS (Gemini), 1% penicillin-streptomycin-glutamine (Gibco), 500 μg/mL hygromycin, and 15 μg/mL blastacidin. […]
Square brackets hold non-standard residues; d marks the D form. Peptide text beside a SMILES is read from it. * marks the point of attachment. DOTA = O=C(O)CN1CCN(CC(=O)O)CCN(CC(=O)*)CCN(CC(=O)O)CC1; Gly(N-(3-F-4-Me-benzyl)) = Cc1ccc(CNCC(=O)*)cc1F; Api(1-amidino) = N=C(N)N1CCC(N)(C(=O)O)CC1; Phe(4-I) = N[C@@H](Cc1ccc(I)cc1)C(=O)O; 4Pal = N[C@@H](Cc1ccncc1)C(=O)O; 4Amb = NCc1ccc(C(=O)O)cc1; Api = NC1(C(=O)O)CCNCC1; Ahx = NCCCCCC(=O)O; azaGly = NNC(=O)O
recorded_metric: Ki

Query: Look up Ki of Cc1ccc(CNCC(=O)N2CCC(NC(=O)[C@H](CC(C)C)NC(=O)NNC(=O)[C@H](Cc3ccccc3)NC(=O)[C@@H](CC(N)=O)NC(=O)[C@@H](CC(N)=O)NC(=O)CN3CCN(CC(=O)O)CCN(CC(=O)O)CCN(CC(=O)O)CC3)(C(=O)N[C@@H](Cc3c[nH]c4ccccc34)C(N)=O)CC2)cc1F [Compound 18] ({DOTA}-[dN][dN]F[azaGly]L[Api](Gly(N-(3-F-4-Me-benzyl)))W-NH2) and report it.
Result: 10 to 100 nM

Query: Look up Ki of Cc1ccc(CNCC(=O)N2CCC(NC(=O)[C@H](CC(C)C)N[C@H](CNC(=O)[C@H](Cc3ccccc3)NC(=O)CCCCCNC(=O)CN3CCN(CC(=O)O)CCN(CC(=O)O)CCN(CC(=O)O)CC3)C(F)(F)F)(C(=O)N[C@@H](Cc3c[nH]c4ccccc34)C(N)=O)CC2)cc1F and report it.
Result: > 100 nM

Query: Look up Ki of Cc1ccc(CNCC(=O)N2CCC(NC(=O)[C@H](CC(C)C)NC(=O)NNC(=O)[C@H](Cc3ccccc3)NC(=O)CCCCCNC(=O)[C@H](Cc3ccc(O)cc3)NC(=O)CNC(=O)c3ccc(CNC(=O)CN4CCN(CC(=O)O)CCN(CC(=O)O)CCN(CC(=O)O)CC4)cc3)(C(=O)N[C@@H](Cc3c[nH]c4ccccc34)C(N)=O)CC2)cc1F [Compound 176] ({DOTA-4Amb}-GY[Ahx]F[azaGly]L[Api](Gly(N-(3-F-4-Me-benzyl)))W-NH2) and report it.
Result: < 10 nM

Query: Look up Ki of CC(C)C[C@H](NC(=O)NNC(=O)[C@H](Cc1ccc(I)cc1)NC(=O)[C@@H](NC(=O)[C@H](CC(N)=O)NC(=O)[C@H](Cc1ccc(I)cc1)NC(=O)[C@@H](Cc1ccc(O)cc1)NC(=O)CN1CCN(CC(=O)O)CCN(CC(=O)O)CCN(CC(=O)O)CC1)[C@@H](C)O)C(=O)NC1(C(=O)N[C@@H](Cc2ccncc2)C(N)=O)CCN(C(=N)N)CC1 [Compound 121] ({DOTA}-[dY][Phe(4-I)]NT[Phe(4-I)][azaGly]L[Api(1-amidino)][4Pal]-NH2) and report it.
Result: 10 to 100 nM

Query: Look up Ki of Cc1ccc(CNCC(=O)N2CCC(NC(=O)[C@H](CC(C)C)NC(=O)NNC(=O)[C@H](Cc3ccccc3)NC(=O)[C@@H](NC(=O)[C@H](CC(N)=O)NC(=O)[C@@H]3CCCN3C(=O)[C@@H](Cc3ccc(O)cc3)NC(=O)CCCCCNC(=O)CN3CCN(CC(=O)O)CCN(CC(=O)O)CCN(CC(=O)O)CC3)[C@@H](C)O)(C(=O)N[C@@H](Cc3c[nH]c4ccccc34)C(N)=O)CC2)cc1F [Compound 20] ({DOTA-Ahx}-[dY]PNTF[azaGly]L[Api](Gly(N-(3-F-4-Me-benzyl)))W-NH2) and report it.
Result: < 10 nM

src = patent US20250312499A1
